test.details: refractive index (Na D-line) (dimensionless); xn = mol fraction of the nth substance listed
cond: 308.15 K; 100.5 kPa; Liquid; Standard Abbe refractometry; x1 = 0.7
Numbers after ± are expanded uncertainties.
quantity.kind: refractive index

{"compound": "CCCCCCCC(=O)OCC [ethyl octanoate] + CCO", "refractive index": "1.40489 ± 0.00032"}
{"compound": "CCCCCC(=O)OCC [ethyl hexanoate] + CCO", "refractive index": "1.39444 ± 0.00032"}
{"compound": "CC(=O)OCCC(C)C [3-methylbutyl ethanoate] + CCO", "refractive index": "1.38795 ± 0.00033"}

Problem: Provide refractive index value for the following compound: CCOC(=O)Cc1ccccc1 [ethyl phenylacetate] + CCO
Result: 1.47255 ± 0.00033

Problem: Look up refractive index of CCCC(=O)OCCC(C)C [3-methylbutyl butanoate] + CCO and report it.
Result: 1.39786 ± 0.00033

Problem: Tell us which refractive index value is on record for CCOC(=O)c1ccccc1 [ethyl benzoate] + CCO
Result: 1.47801 ± 0.00032

Where do the numbers come from? From the NIST ThermoML archive (doi:10.1021/je0601208).
